Tested on: Caenorhabditis elegans N2
Test: mean nematode size ln(EXT) after 48 h, plate-adjusted (DMSO control set to 6) (ln(EXT), control-adjusted); higher = larger nematodes / less growth inhibition
Details: 1 µM; exposure time 48 h
Where a name gives a salt, the structure may show the parent alone.
mean nematode size ln(EXT) (ln) values by entry
The reply should be a number, written without any unit.

{"compound": "Cc1cc2c3c(c1)C(c1ccccc1)=N[C@@H](NC(=O)c1ccncc1)C(=O)N3CC2", "mean nematode size ln(EXT) (ln)": 5.88}
{"compound": "C1CC2OC2CC1C1CO1 (mixture of isomers) [Vinylcyclohexene dioxide, mixture of isomers]", "mean nematode size ln(EXT) (ln)": 5.97}
{"compound": "CCC(C)(C)c1ccc(O)cc1", "mean nematode size ln(EXT) (ln)": 5.81}
{"compound": "CC1(C)C(C=C(Cl)Cl)C1C(=O)OC(C#N)c1cccc(Oc2ccccc2)c1 (stereo unspecified)", "mean nematode size ln(EXT) (ln)": 6.11}
{"compound": "Cn1cnc2c1c(=O)[nH]c(=O)n2C", "mean nematode size ln(EXT) (ln)": 5.87}
{"compound": "S=C1NCCN1", "mean nematode size ln(EXT) (ln)": 5.97}
{"compound": "Nc1ccc(S(=O)(=O)c2ccc(N)cc2)cc1", "mean nematode size ln(EXT) (ln)": 5.92}
{"compound": "CCOP(=S)(OCC)Oc1ccc([N+](=O)[O-])cc1", "mean nematode size ln(EXT) (ln)": 5.66}

Query: Dear colleague, I am looking for the recorded mean nematode size ln(EXT) (ln) of the following compound: CCCCCCCCN(C)CCCCCCCC
Result: 5.86

Query: Entry CCCCOC(=O)c1ccccc1 [Butyl benzoate] : reported mean nematode size ln(EXT) (ln) = ?
Result: 5.94

Query: // lookup mean nematode size ln(EXT) (ln) for N#CN [Cyanamide]
Result: 5.96

Query: Which mean nematode size ln(EXT) (ln) is reported for this compound? CSC(=O)c1cccc2nnsc12
Result: 5.73

Query: mean nematode size ln(EXT) (ln) lookup needed for COc1cc(-c2ccc(N)c(OC)c2)ccc1N [3,3'-Dimethoxybenzidine dihydrochloride] , thanks.
Result: 5.91

Query: Look at this compound and give its reported mean nematode size ln(EXT) (ln). CCCC1COC(Cn2cncn2)(c2ccc(Cl)cc2Cl)O1 (stereo unspecified)
Result: 6.09

Query: # query: mean nematode size ln(EXT) (ln) of entry C=CC(=O)OCCCCCC(C)C [Isooctyl acrylate]
Result: 5.47

Query: Report mean nematode size ln(EXT) (ln) for CCOCN(C(=O)CCl)c1c(C)cccc1CC please.
Result: 6

Query: I'd like to know its mean nematode size ln(EXT) (ln). The compound in question is CCCCCOC(=O)c1ccccc1C(=O)OCCCCC [Dipentyl phthalate]
Result: 5.86

Query: // lookup mean nematode size ln(EXT) (ln) for Nc1ccc(Cc2ccc(N)cc2)cc1
Result: 5.73

Query: // lookup mean nematode size ln(EXT) (ln) for C#CC(C)(C)NC(=O)c1cc(Cl)cc(Cl)c1 [Propyzamide]
Result: 5.91

Query: Form field: reported mean nematode size ln(EXT) (ln) of COP(=S)(OC)SCn1nnc2ccccc2c1=O
Result: 6.12

Query: Record request: mean nematode size ln(EXT) (ln) value, item CC(C)(C)OOC(=O)c1ccccc1 [tert-Butyl perbenzoate]
Result: 6.11

These measurements were taken from the supplement of paper PMC4858399.
